Each item that follows carries a reported Emax.
target: 5HT2B receptors (Homo sapiens); construct: expressed in transfected cells; host or cells: CHO-K1 cells; assay: Human 5-HT2B functional high throughput screening assay in CHO-K1 cells (calcium flux); format: cell-based; details: CHO-K1
Sequence (P41595 whole entry): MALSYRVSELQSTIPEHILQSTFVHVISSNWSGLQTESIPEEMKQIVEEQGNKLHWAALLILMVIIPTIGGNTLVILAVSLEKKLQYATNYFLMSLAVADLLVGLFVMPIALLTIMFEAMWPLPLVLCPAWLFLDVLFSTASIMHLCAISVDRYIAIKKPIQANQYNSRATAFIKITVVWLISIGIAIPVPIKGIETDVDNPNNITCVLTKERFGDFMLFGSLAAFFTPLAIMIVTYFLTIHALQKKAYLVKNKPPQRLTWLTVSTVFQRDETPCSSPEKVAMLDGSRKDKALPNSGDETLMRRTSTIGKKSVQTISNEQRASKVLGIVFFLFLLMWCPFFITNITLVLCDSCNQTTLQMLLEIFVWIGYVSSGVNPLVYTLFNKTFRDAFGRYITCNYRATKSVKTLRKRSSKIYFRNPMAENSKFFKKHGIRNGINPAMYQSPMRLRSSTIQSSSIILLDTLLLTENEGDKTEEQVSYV
Write down the numeric answer in % and omit the unit.

# compound, Emax / %
measured = [
    ("CN1C[C@H]2CNC[C@@H]2c2ccc(F)cc2C1=O", 110),
    ("FC(F)(F)Oc1cccc2c1OCC[C@H]1CNC[C@H]21 (relative stereo)", 90),
    ("Fc1ccc2c(c1)OCC[C@H]1CN(Cc3ccccc3)C[C@H]21 (relative stereo)", 15),
    ("Cc1cccc(S(=O)(=O)N2Cc3cccnc3[C@@H]3CNC[C@H]3C2)c1 (relative stereo)", 50),
    ("c1cnc2c(c1)[C@@H]1CNC[C@H]1CCO2 (relative stereo)", 20),
]

Ask: Checklist item: Emax tested on 5HT2B receptors (Homo sapiens), entry c1cnc2c(c1)C1CNCC1CCO2 (mixture of isomers) , value?
Reply: 45

Ask: Checklist item: Emax tested on 5HT2B receptors (Homo sapiens), entry CN1C[C@H]2CCN(C)c3ccc(Cl)cc3[C@@H]2C1 (relative stereo) , value?
Reply: 65

----------
Target: human serotonin 5-HT2c receptor (Homo sapiens, UniProt P28335)
Assay: Human 5-HT2C receptor radioligand binding assay (agonist site, [125I]DOI)
Conditions: 5-HT2c agonist site; transfected CHO cell membranes; 0.2 nM [125I](±)DOI
Procedure: (i) Human 5-HT2C Receptor Radioligand Binding Assay Affinity of compounds for the agonist site of the […], receptor in transfected CHO cells was determined in a radioligand binding assay essentially as described by Bryant, H. U., et al., Life Sciences (1996) 59(15), 1259-1268.
Returns: string. Value is yes (1) if measured Ki is below 9 nM, and no (0) if it is greater than or equal to it.

Observe how each entry below is paired with its result.
# compound, label
data = [
    ("COc1cccc(CN2C[C@H]3CNC(=O)c4ccccc4[C@@H]3C2)c1 (relative stereo)", "no (0)"),
    ("Cc1cccc(CN2C[C@H]3CNC(=O)c4ccccc4[C@@H]3C2)c1C (relative stereo)", "no (0)"),
    ("COc1cc(CN2C[C@H]3CNC(=O)c4ccccc4[C@@H]3C2)cc(OC)c1 (relative stereo)", "yes (1)"),
]

Ask: Please determine if CN1C[C@H]2CNC(=O)c3ccccc3[C@@H]2C1 (relative stereo) is below 9 nM in terms of Ki.
Reply: no (0)

Ask: Please determine if O=C1NC[C@@H]2CNC[C@H]2c2cc(F)ccc21 (relative stereo) is below 9 nM in terms of Ki.
Reply: no (0)

Ask: Please determine if O=C1NC[C@@H]2CN(Cc3cc(Cl)ccc3F)C[C@H]2c2ccccc21 (relative stereo) is below 9 nM in terms of Ki.
Reply: no (0)

Ask: Please determine if CN1C[C@H]2CNC(=O)c3cc(Cl)ccc3[C@@H]2C1 (relative stereo) is below 9 nM in terms of Ki.
Reply: yes (1)

----------
target: 5HT2C receptors (Homo sapiens, UniProt P28335); assay: Human 5-HT2C functional high throughput screening assay in CHO-K1 cells (calcium flux); format: cell-based; design: expressed in transfected cells; host or cells: CHO-K1 cells; settings: 5-HT2C agonist activity; CHO-K1 cells; calcium flux; read-out: EC50
Sequence (P28335 33-458): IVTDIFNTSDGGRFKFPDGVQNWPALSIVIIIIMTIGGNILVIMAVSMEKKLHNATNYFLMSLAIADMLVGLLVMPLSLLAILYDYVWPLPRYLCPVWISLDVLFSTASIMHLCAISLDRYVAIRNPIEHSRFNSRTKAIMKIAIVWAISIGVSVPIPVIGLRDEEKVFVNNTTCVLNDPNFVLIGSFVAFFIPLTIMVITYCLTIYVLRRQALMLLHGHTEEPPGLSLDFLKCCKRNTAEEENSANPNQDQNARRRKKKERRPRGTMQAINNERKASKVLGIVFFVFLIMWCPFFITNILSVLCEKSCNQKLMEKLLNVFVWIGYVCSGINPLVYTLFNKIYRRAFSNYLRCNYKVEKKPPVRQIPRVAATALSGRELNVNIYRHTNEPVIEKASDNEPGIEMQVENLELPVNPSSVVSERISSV
pEC50: −log10 of the molar value.
I would appreciate it if you labelled entries Met when pEC50 is 8 or higher, otherwise Not met.

Ask: API: above_or_equal(metric=pEC50, cutoff=8) for item CC(C)c1cccc(-c2ccc3c(c2)C(=O)NC[C@@H]2CN(C)C[C@@H]32)c1 (relative stereo)
Reply: Met

Ask: API: above_or_equal(metric=pEC50, cutoff=8) for item CS(=O)(=O)c1cccc(-c2cccc3c2OCC[C@H]2CNC[C@H]32)c1 (relative stereo)
Reply: Not met

Ask: API: above_or_equal(metric=pEC50, cutoff=8) for item O=S(=O)(c1ccc(OC(F)(F)F)cc1)N1Cc2cccnc2[C@@H]2CNC[C@H]2C1 (relative stereo)
Reply: Not met

Ask: API: above_or_equal(metric=pEC50, cutoff=8) for item O=C1NC[C@@H]2CNC[C@H]2c2ccc(OCCc3cccc(F)c3)cc21 (relative stereo)
Reply: Not met

Ask: API: above_or_equal(metric=pEC50, cutoff=8) for item COc1ccc2c(c1)C(=O)NC[C@@H]1CN(Cc3ccccc3)C[C@H]21 (relative stereo)
Reply: Not met

Ask: API: above_or_equal(metric=pEC50, cutoff=8) for item CC(C)CC(O)c1cccc(-c2ccc3c(c2)C(=O)NC[C@H]2CN(C)C[C@H]32)c1 (stereo partly drawn)
Reply: Met

Ask: API: above_or_equal(metric=pEC50, cutoff=8) for item Cc1c(Cl)cccc1S(=O)(=O)N1Cc2cccnc2[C@@H]2CNC[C@H]2C1 (relative stereo)
Reply: Not met

Ask: API: above_or_equal(metric=pEC50, cutoff=8) for item c1ccc(-c2cccc3c2OCC[C@H]2CNC[C@H]32)cc1 (relative stereo)
Reply: Met

Ask: API: above_or_equal(metric=pEC50, cutoff=8) for item O=S(=O)(c1cccc(OC(F)(F)F)c1)N1Cc2cccnc2[C@@H]2CNC[C@H]2C1 (relative stereo)
Reply: Not met

Ask: API: above_or_equal(metric=pEC50, cutoff=8) for item O=C1NC[C@@H]2CNC[C@H]2c2ccc(OCc3ccccc3C(F)(F)F)cc21 (relative stereo)
Reply: Met

Ask: API: above_or_equal(metric=pEC50, cutoff=8) for item CN1C[C@H]2CNC(=O)c3cc(-c4ccc(OC(F)(F)F)cc4)ccc3[C@@H]2C1 (relative stereo)
Reply: Not met

Ask: API: above_or_equal(metric=pEC50, cutoff=8) for item CN1C[C@@H]2CNC(=O)c3cc(O)ccc3[C@H]2C1
Reply: Not met

Ask: API: above_or_equal(metric=pEC50, cutoff=8) for item CN1C[C@H]2CNC(=O)c3cc(-c4cccc(OC(F)(F)F)c4)ccc3[C@@H]2C1 (relative stereo)
Reply: Not met

Ask: API: above_or_equal(metric=pEC50, cutoff=8) for item O=C1NC[C@@H]2CNC[C@H]2c2cccnc21 (relative stereo)
Reply: Not met

Attribution: patent US8846951B2
